target: T1, recombinant cynomolgus monkey PD-L1 expressed with a C-terminal mouse IgG2a Fc tag (cynomolgus monkey); assay: SPR (Biacore), mAb captured, 37C
T1 construct: also called MfPD-L1-mFc; monkey PD-L1-mFc
T1 sequence (chain, as listed by the source limits assumed): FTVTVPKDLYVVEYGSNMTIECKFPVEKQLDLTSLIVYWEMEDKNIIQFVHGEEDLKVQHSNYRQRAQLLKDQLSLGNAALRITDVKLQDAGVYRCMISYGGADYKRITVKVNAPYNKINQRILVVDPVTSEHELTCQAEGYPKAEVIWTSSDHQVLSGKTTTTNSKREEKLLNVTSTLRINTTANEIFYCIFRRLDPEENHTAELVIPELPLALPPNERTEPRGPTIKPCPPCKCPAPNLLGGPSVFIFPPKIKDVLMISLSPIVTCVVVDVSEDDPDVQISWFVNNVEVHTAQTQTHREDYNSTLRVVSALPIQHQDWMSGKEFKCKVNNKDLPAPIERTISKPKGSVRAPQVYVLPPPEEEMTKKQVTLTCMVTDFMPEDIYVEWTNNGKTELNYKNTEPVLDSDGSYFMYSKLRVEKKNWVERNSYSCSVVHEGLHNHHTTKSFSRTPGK
We begin with a simple list: items and their reported kon.
Response body: numeric value in M⁻¹ s⁻¹, unit text excluded.

Known kon results, listed for orientation:
binder="H1H9336P (antibody, V domains shown, human IgG1 Fc (H1H prefix)) VH: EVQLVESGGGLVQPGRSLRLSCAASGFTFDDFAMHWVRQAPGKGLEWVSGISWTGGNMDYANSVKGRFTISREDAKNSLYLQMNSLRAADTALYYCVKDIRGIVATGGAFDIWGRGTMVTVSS VL: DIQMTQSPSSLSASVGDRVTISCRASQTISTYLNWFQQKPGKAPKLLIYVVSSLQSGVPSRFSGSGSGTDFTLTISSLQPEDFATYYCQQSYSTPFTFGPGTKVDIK" parameter=kon quantitative_readout=1.86e+06
binder="H1H8314N (antibody, V domains shown, human IgG1 Fc form (H1H prefix) of numerical identifier 8314) VH: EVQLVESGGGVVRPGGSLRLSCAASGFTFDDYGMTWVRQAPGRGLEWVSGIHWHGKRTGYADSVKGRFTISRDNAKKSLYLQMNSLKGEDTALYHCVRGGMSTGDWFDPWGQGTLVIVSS VL: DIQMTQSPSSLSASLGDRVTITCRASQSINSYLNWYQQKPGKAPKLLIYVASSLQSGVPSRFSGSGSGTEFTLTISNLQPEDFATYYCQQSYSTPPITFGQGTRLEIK" parameter=kon quantitative_readout=2.89e+06
binder="H1H9329P (antibody, V domains shown, human IgG1 Fc (H1H prefix)) VH: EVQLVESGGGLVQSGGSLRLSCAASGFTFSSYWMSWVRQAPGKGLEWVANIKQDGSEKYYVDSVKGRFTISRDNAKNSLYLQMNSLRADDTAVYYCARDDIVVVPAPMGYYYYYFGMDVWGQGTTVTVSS VL: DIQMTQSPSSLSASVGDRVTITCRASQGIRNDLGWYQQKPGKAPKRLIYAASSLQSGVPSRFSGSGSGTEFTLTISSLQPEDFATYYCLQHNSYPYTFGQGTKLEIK" parameter=kon quantitative_readout=2.18e+06

Fill blank: measured kon of the binder H1H8323N (antibody, V domains shown, human IgG1 Fc form (H1H prefix) of numerical identifier 8323) VH: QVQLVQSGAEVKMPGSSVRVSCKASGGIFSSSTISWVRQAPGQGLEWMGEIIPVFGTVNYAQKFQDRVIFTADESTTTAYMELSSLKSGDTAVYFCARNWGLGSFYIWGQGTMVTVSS VL: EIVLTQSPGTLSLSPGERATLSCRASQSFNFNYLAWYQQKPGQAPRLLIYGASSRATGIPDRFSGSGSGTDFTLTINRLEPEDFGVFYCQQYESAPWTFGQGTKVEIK is ____.
2.99e+06
